Entries and their measured EC50 follow.
Target: PIK3CA (human)
Assay: Inhibition of A2780 Cell Proliferation

Solved entries (count: 3):
structure_smiles_string | result
NC(=O)N1CC[C@H]1C(=O)Nc1cn2cc(-c3cnc(N)c(C(F)(F)F)c3)ccc2n1 | < 25 µM
COCC(=O)Nc1cn2nc(-c3cnc(N)c(C(F)(F)F)c3)ccc2n1 | < 1 µM
CC(=O)Nc1cn2nc(-c3cnc(N)c(-c4cccc(C(F)(F)F)c4)c3)ccc2n1 | < 10 µM

Would you kindly share the measured EC50 for Nc1ncc(-c2ccc3nc(NC(=O)c4cccnc4)cn3c2)cc1C(F)(F)F ? < 10 µM

Please give the measured EC50 for this compound: CC(=O)Nc1nc2ccc(-c3cnc(N)cc3C)cc2s1 < 25 µM

====

Each entry below carries its recorded pEC50.
Target: PIK3CA (human) (UniProt P42336)
Sequence (P42336 whole entry, looked up): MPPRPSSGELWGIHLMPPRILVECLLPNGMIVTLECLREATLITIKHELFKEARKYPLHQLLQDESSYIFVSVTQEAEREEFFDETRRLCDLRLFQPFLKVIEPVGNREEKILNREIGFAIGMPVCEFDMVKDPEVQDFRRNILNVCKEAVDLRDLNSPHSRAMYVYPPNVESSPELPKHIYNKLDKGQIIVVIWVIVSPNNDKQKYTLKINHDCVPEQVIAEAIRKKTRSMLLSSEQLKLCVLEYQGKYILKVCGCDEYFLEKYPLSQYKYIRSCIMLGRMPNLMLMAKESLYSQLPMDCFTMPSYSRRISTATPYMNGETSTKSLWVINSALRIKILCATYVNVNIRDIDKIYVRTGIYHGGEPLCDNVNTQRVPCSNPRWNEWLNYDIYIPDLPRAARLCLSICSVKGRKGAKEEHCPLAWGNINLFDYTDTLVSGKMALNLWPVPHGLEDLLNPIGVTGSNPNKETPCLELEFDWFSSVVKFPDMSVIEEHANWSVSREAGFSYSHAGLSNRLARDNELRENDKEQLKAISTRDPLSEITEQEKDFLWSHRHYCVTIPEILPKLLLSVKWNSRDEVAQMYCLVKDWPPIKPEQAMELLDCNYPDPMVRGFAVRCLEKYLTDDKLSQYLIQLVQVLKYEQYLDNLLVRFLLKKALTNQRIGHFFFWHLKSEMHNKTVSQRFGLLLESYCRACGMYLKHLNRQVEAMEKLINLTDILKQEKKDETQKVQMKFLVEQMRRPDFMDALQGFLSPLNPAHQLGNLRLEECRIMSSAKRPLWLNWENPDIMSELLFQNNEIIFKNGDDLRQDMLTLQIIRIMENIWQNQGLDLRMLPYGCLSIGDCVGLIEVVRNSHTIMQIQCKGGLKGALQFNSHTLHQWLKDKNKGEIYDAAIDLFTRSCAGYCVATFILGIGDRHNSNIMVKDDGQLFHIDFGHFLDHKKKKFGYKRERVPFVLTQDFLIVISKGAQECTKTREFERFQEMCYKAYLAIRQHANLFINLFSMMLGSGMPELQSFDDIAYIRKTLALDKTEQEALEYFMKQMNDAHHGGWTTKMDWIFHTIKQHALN
Assay: Inhibition of A2780 Cell Proliferation
pEC50: −log10 of the molar value.

Solved cases below.
structure_smiles_string | pEC50
COc1cc(-c2ccc3nc(NC(C)=O)c(Br)n3c2)cnc1N | > 5.00
CNC(=O)[C@@H]1CCCN1C(=O)Nc1cn2cc(-c3cnc(N)c(C(F)(F)F)c3)ccc2n1 | > 4.60

Please give the measured pEC50 for this compound: CC(=O)Nc1cn2cc(-c3cnc(N)c(-c4ccc(C(F)(F)F)cc4)c3)ccc2n1 > 6.00

# query: pEC50 of entry CC(=O)Nc1nc2ccc(-c3cnc(N)c(C(F)(F)F)c3)cn2c1C#Cc1ccccc1 > 5.00

Given the compound CC(=O)Nc1cn2nc(-c3cnc(N)c(C(=O)NCCO)c3)ccc2n1 , what is its reported pEC50? > 4.60

Value lookup for pEC50; key = CC(=O)Nc1cn2nc(-c3cnc(N)c(-c4ccccc4F)c3)ccc2n1 > 6.00

Returns the measured pEC50 for the input compound. Input: CC(C)(C)OC(=O)N1CC[C@H](OCC(=O)Nc2cn3nc(-c4cnc(N)c(C(F)(F)F)c4)ccc3n2)C1 > 6.00

Query (compound): Nc1ncc(-c2ccc3nc(NC(=O)CCCn4ccnc4)cn3c2)cc1C(F)(F)F ; field requested: pEC50 > 5.00

Look up pEC50: CC(=O)Nc1nc2ccc(-c3cnc(N)c(C(F)(F)F)c3)cn2c1C#CCN1CCOCC1 > 5.00

====

Target: PIK3CA (human) (UniProt P42336)
Assay: Inhibition of A2780 Cell Proliferation
Recorded EC50 by entry

structure_smiles_string | EC50
CC(C)(C)OC(=O)NCCC(=O)Nc1cn2nc(-c3cnc(N)c(C(F)(F)F)c3)ccc2n1 | < 10 µM

Give recorded EC50 with PIK3CA (human) (UniProt P42336) for the following compound: CC(=O)Nc1cn2nc(-c3cnc(N)c(C(=O)NCCN)c3)ccc2n1 < 25 µM

Look up EC50 with PIK3CA (human) (UniProt P42336) for this compound: CC(=O)Nc1cn2cc(-c3cnc(N)c(-c4ccccc4N4CCOCC4)c3)ccc2n1 < 1 µM

====

Target: PIK3CA (human) (UniProt P42336)
Test: Inhibition of A2780 Cell Proliferation
pEC50: −log10 of the molar value.
parameter: pEC50

molecule | pEC50
COCCOc1nc(-c2ccc3nc(NC(=O)C4CCN4C(C)=O)cn3c2)cnc1N (stereo unspecified) | > 5.00
CC(C)(C)OC(=O)N1CCN(c2ccc(C(=O)Nc3cn4cc(-c5cnc(N)c(C(F)(F)F)c5)ccc4n3)cn2)CC1 | > 6.00
CC(C)(C)OC(=O)NCC(=O)Nc1cn2nc(-c3cnc(N)c(C(F)(F)F)c3)ccc2n1 | > 5.00

Could you share which pEC50 value was measured for CC(=O)Nc1cn2cc(-c3cnc(N)c(Oc4cccnc4)n3)ccc2n1 ? > 6.00

Could you share which pEC50 value was measured for CNC(=O)Nc1nc2ccc(-c3ccc(N)nc3)cc2s1 ? > 5.00

Any idea what its pEC50 is? The molecule is COCCOc1nc(-c2ccc3nc(NC(=O)CN4CCCCC4)cn3c2)cnc1N > 5.00

Would you kindly share the measured pEC50 for CC(=O)Nc1cn2cc(-c3cnc(N)c(OC4CCC4)n3)ccc2n1 ? > 6.00

Entry under review: CC(=O)Nc1cn2cc(-c3cnc(N)c(C(=O)NCCO)n3)ccc2n1 . Reported pEC50? > 4.60

Please report the recorded pEC50 for CN(C)CCCC(=O)Nc1cn2nc(-c3cnc(N)c(C(F)(F)F)c3)ccc2n1 . > 6.00

I'd like to know its pEC50. The molecule in question is CC(=O)Nc1cn2nc(-c3cnc(N)c(C(=O)NCCNS(C)(=O)=O)c3)ccc2n1 > 4.60

Quick one: pEC50 for CC(=O)Nc1cn2nc(-c3cnc(N)c(-c4ccccc4C(F)(F)F)c3)ccc2n1 ? > 6.00

====

Target: PIK3CA (human) (UniProt P42336)
Test: Inhibition of A2780 Cell Proliferation
parameter: EC50

molecule | target_under_test | EC50
CNC(=O)[C@@H]1CCN1C(=O)Nc1cn2cc(-c3cnc(N)c(C(F)(F)F)c3)ccc2n1 | PIK3CA (human) (UniProt P42336) | < 25 µM

What does the data say about its EC50? Entry: NC(=O)N1CCC[C@H]1C(=O)Nc1cn2cc(-c3cnc(N)c(C(F)(F)F)c3)ccc2n1 < 10 µM

Query: EC50; subject: CC(C)(C)OC(=O)N1CC(C(=O)Nc2cn3cc(-c4cnc(N)c(C(F)(F)F)c4)ccc3n2)C1 < 10 µM

Recorded EC50 for CC(C)(C)OC(=O)N1CC[C@@H](OCC(=O)Nc2cn3nc(-c4cnc(N)c(C(F)(F)F)c4)ccc3n2)C1 , please? < 1 µM

Data request, read-out EC50, for CC(=O)Nc1cn2cc(-c3cnc(N)c(Oc4ccc(N5CCN(C(C)=O)CC5)cc4)n3)ccc2n1 < 10 µM

EC50 lookup needed for Nc1ncc(-c2ccc3nc(NC(=O)c4ccncc4)cn3c2)cc1C(F)(F)F , thanks. < 25 µM

What value of measured EC50 is listed for Cc1ccc(C2CCCN2C(=O)Nc2cn3cc(-c4cnc(N)c(C(F)(F)F)c4)ccc3n2)s1 (stereo unspecified) ? < 25 µM

I have this molecule here, CC(=O)Nc1cn2cc(-c3cnc(N)c(Br)n3)ccc2n1 , and I need its recorded EC50. < 25 µM

What value of EC50 has been reported for the following molecule? CC(=O)Nc1cn2cc(-c3cnc(N)c(-c4ccccc4OC(F)(F)F)c3)ccc2n1 < 10 µM

Consider the molecule CC(=O)Nc1cn2nc(-c3cnc(N)c(OCC(F)(F)F)n3)ccc2n1 and give its measured EC50. < 10 µM

Give its EC50 value. Item: Nc1ccc(C(=O)Nc2nc3ccc(-c4cnc(N)c(C(F)(F)F)c4)cc3s2)cn1 < 1 µM

====

Target: PIK3CD (Human) (UniProt O00329)
Sequence (O00329 whole entry, looked up): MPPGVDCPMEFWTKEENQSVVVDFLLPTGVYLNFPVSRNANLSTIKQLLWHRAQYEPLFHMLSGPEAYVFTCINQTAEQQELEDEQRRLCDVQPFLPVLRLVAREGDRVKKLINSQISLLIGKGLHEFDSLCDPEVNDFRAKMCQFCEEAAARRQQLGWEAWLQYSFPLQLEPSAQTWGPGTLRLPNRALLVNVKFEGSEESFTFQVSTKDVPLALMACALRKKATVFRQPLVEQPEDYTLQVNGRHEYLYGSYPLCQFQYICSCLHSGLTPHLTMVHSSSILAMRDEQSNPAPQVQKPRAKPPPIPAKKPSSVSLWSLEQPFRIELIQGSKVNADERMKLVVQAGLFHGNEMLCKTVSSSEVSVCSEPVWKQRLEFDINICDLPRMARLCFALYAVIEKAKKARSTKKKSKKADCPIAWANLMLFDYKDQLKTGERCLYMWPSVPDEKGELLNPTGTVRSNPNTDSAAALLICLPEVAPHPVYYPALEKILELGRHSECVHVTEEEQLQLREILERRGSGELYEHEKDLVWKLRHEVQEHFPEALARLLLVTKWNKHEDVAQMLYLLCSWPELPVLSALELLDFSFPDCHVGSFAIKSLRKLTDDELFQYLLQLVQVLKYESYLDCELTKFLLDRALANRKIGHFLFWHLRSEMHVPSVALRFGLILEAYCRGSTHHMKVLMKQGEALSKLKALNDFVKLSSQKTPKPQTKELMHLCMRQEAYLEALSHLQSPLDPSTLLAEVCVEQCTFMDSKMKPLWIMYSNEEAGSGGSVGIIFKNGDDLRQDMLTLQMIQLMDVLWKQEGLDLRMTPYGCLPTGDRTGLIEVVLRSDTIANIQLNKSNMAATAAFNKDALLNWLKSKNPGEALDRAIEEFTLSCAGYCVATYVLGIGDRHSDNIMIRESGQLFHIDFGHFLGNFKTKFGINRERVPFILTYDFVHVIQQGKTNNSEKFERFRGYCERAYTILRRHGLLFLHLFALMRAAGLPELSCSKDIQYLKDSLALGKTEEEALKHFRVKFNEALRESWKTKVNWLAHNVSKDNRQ
pKi: −log10 of the molar value.
parameter: pKi

What pKi appears in the records for this molecule with PIK3CD (Human) (UniProt O00329)? Nc1ncc(-c2ccc3nc(NC(=O)NCCn4nnc(C5CC5)n4)cn3c2)cc1C(F)(F)F > 6.00

====

Target: PIK3CA (human)
Experiment: Inhibition of A2780 Cell Proliferation
parameter: EC50

// solved cases for EC50 follow
structure_smiles_string | EC50
Nc1ncc(-c2ccc3nc(NC(=O)[C@@H]4CCCN4)cn3n2)cc1C(F)(F)F | < 10 µM
Nc1ncc(-c2ccc3nc(NC(=O)N4CC[C@H](O)C4)cn3c2)cc1C(F)(F)F | < 10 µM
CC(C)C(=O)Nc1cn2cc(-c3cnc(N)c(C(F)(F)F)c3)ccc2n1 | < 25 µM
CC(C)(C)OC(=O)N1CCC[C@@H]1C(=O)Nc1cn2nc(-c3cnc(N)c(C(F)(F)F)c3)ccc2n1 | < 25 µM
COCCOc1nc(-c2ccc3nc(NC(C)=O)cn3n2)cnc1N | < 10 µM

Okay, next one:
Form field: reported EC50 of Nc1ncc(-c2ccc3nc(NC(=O)[C@@H]4CCCN4)cn3c2)cc1C(F)(F)F < 10 µM

====

Target: PIK3CA (human)
Test: Inhibition of A2780 Cell Proliferation
parameter: EC50

Example entries begin here.
compound | result
CC(=O)Nc1nc2ccc(-c3cnc(N)c(OCC(F)(F)F)n3)cc2s1 | < 1 µM
CC(=O)Nc1cn2cc(-c3ccc(N)nc3C)ccc2n1 | < 25 µM
CC(=O)Nc1nc2ccc(-c3cnc(N)c(C(F)(F)F)c3)cn2c1C(N)=O | < 10 µM
NC(=O)Nc1cn2cc(-c3cnc(N)c(C(F)(F)F)c3)ccc2n1 | < 10 µM

Recall the recorded EC50 for COc1c(-c2cnc(N)c(C(F)(F)F)c2)ccc2nc(NC(=O)C(F)(F)F)cn12 with PIK3CA (human) and state it. < 25 µM

Kindly state the measured EC50 obtained for COCCOc1nc(-c2ccc3nc(NC(=O)C4CCN4)cn3c2)cnc1N (stereo not given) with PIK3CA (human). < 25 µM

// fetch PIK3CA (human) EC50 for CC(C)(C)OC(=O)N1CCCCC1CCC(=O)Nc1cn2nc(-c3cnc(N)c(C(F)(F)F)c3)ccc2n1 (stereo not given) < 10 µM

Hello, I am looking for reported EC50 with PIK3CA (human) for CC(=O)Nc1cn2cc(-c3cnc(N)c(C=NNc4ccccc4)c3)ccc2n1 . Could you help? < 1 µM

API: value(readout=EC50, system=PIK3CA (human)) for record CC(=O)Nc1nc2c(F)cc(-c3cnc(N)c(C(F)(F)F)c3)cc2s1 < 25 µM

For the record Nc1ncc(-c2ccc3nc(NC(=O)C4CNC4)cn3n2)cc1Cl , what value of EC50 is listed for PIK3CA (human)? < 25 µM
